Origin of values: the FLAb antibody collection (doi:10.7554/elife.23156)

B1: scFv; the commonest letter at each place (parent)
chain 1: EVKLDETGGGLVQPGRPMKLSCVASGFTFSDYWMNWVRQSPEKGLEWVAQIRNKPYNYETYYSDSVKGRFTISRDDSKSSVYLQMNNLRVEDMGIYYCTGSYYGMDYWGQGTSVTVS
chain 2: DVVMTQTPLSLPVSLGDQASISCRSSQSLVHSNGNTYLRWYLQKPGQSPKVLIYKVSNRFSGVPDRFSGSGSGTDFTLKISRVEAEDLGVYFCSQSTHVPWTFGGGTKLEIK

Variants of: B1
Experiment: yeast surface expression (ratio to wild type); higher = more expressed
Conditions: format: scFv 4-4-20, heavy + light
readout name: yeast surface expression
Could you respond with only the numeric value?

The examples below pair each entry with its known result.
chain 1 F29M D31Y W33Q    0.811
chain 1 Y102F Y103I    0.793
chain 1 V37A    0.784
chain 1 W33G    0.809

Next variant, please.
*Q* # get_value(readout='yeast surface expression', item= chain 1 F29R Y32P N35E )
*A* 0.819
